# System: Influenza A virus
# assayRemarks: Antiviral activity against pandemic Influenza A virus A/TW/2235/09 (H1N1) SO4 infected in MDCK cells after 72 hrs by crystal violet-staining based assay
# Assay type: functional, organism-based
# details: A/TW/2235/09 (H1N1) SO4, MDCK
Kindly state EC50 for each of the entries shown.

> print(dat)
                                givensmiles  metricname  assayvalue
1  C=C(CC(=O)Nc1ccc(C(F)(F)F)cc1F)C(=O)Nc1ccc(C(F)(F)F)cc1F        EC50     1620 nM

Then this compound:
Request: Item `C=C(CC(=O)Nc1ccc(F)cc1F)C(=O)Nc1ccc(F)cc1F` with Influenza A virus - EC50?
Result: 2360 nM
